Target: SARS-CoV-2 spike protein WT (SARS-CoV-2 (WT), UniProt P0DTC2 14-1213)
Experiment: streptavidin bead fluorescence binding
Conditions: protein: commercial; tags: His; chain copies: 3
pKd: −log10 of the molar value.
measurement.name: pKd

{"columns": ["binder", "endpoint.value"],
 "data": [
  ["CGCAGCACCCAAGAACAAGGACTGCTTAGGATTGCGATAGGTTCGG (ssDNA) [S1B6C3]", 7.25]
]}
